# PROCEDURE_TEXT: Stability in mouse serum assessed as intact compound remaining at 10 to 20 uCi/mL after 10 mins by size-exclusion HPLC analysis
# Format: ADME, cell-free
# EXPERIMENTAL_PARAMETERS: read-out: Stability
RESULT_TYPE: remaining at 10 min

Exam item: GET /values?readout=remaining at 10 min&item= C[C@]12CCC(=O)C[C@@H]1CC[C@@H]1[C@@H]2CC[C@]2(C)[C@@H](OC(=O)CCC(=O)O[C@H]3C[C@H](n4cc([125I])c(=O)[nH]c4=O)O[C@@H]3CO)CC[C@@H]12
Marked response: < 1.5%

====

# PROCEDURE_TEXT: Stability in human OVCAR-3 cells expressing androgen receptor assessed as assessed as compound degradation at 0.01 to 5 uCi/mL up to 24 hrs by silica gel instant thin layer chromatography
# Assay type: ADME, cell-based
# EXPERIMENTAL_PARAMETERS: read-out: Activity
RESULT_TYPE: metabolised at 24 h (%)
One number for each entry, in %.

Exam item: GET /values?readout=metabolised at 24 h&item= C[C@]12CCC(=O)C[C@@H]1CC[C@@H]1[C@@H]2CC[C@]2(C)[C@@H](OC(=O)CCC(=O)O[C@H]3C[C@H](n4cc([125I])c(=O)[nH]c4=O)O[C@@H]3CO)CC[C@@H]12
Marked response: 1.1

====

# TGT: Sex hormone-binding globulin (Homo sapiens, UniProt P04278)
# Sequence (P04278 whole entry): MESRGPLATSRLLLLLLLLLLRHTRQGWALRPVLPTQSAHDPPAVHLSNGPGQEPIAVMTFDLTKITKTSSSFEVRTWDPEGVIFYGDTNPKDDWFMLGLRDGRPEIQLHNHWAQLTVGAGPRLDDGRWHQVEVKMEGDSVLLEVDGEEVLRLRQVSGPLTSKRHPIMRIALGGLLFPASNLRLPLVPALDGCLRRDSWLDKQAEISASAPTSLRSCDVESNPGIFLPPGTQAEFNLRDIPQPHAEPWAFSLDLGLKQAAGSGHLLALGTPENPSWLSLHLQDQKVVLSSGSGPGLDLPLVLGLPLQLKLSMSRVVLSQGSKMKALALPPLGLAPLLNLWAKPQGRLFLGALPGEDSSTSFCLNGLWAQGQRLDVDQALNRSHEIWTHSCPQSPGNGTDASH
# PROCEDURE_TEXT: Binding affinity to human sex hormone binding globulin assessed as intact compound remaining at 10 to 20 uCi/mL after 60 mins by instant thin layer chromatography
# Assay type: ADME
# EXPERIMENTAL_PARAMETERS: read-out: Stability
RESULT_TYPE: remaining at 1 h

Exam item: GET /values?readout=remaining at 1 h&item= C[C@]12CCC(=O)C[C@@H]1CC[C@@H]1[C@@H]2CC[C@]2(C)[C@@H](OC(=O)CCC(=O)O[C@H]3C[C@H](n4cc([125I])c(=O)[nH]c4=O)O[C@@H]3CO)CC[C@@H]12
Marked response: > 91%

====

# PROCEDURE_TEXT: Stability in rabbit serum assessed as intact compound remaining at 10 to 20 uCi/mL after 60 mins by reversed phase HPLC analysis
# Format: ADME, cell-free, Oryctolagus cuniculus
# EXPERIMENTAL_PARAMETERS: read-out: Stability
Kindly state remaining at 1 h for each of the entries shown.

O=c1[nH]c(=O)n([C@H]2C[C@H](O)[C@@H](COP(=O)(O)O)O2)cc1[125I]	30%

Please examine the following record next.
Exam item: GET /values?readout=remaining at 1 h&item= CCOC(=O)CCC(=O)O[C@H]1C[C@H](n2cc([125I])c(=O)[nH]c2=O)O[C@@H]1CO
Marked response: < 2%

====

# PROCEDURE_TEXT: Chemical stability in RPMI-1640 serum-free medium assessed as intact compound remaining at 12.2 uCi up to 6 hrs by HPLC analysis
# Type: physicochemical
# EXPERIMENTAL_PARAMETERS: read-out: Stability
RESULT_TYPE: remaining at 6 h, 12.2 uCi (%)
One number for each entry, in %.

Exam item: GET /values?readout=remaining at 6 h, 12.2 uCi&item= C[C@]12CCC(=O)C[C@@H]1CC[C@@H]1[C@@H]2CC[C@]2(C)[C@@H](OC(=O)CCC(=O)O[C@H]3C[C@H](n4cc([125I])c(=O)[nH]c4=O)O[C@@H]3CO)CC[C@@H]12
Marked response: 90

Data origin: ChEMBL document CHEMBL1155242
